Molecular target: hSTING-H232 (Homo sapiens, UniProt Q86WV6)
Sequence (Q86WV6 whole entry): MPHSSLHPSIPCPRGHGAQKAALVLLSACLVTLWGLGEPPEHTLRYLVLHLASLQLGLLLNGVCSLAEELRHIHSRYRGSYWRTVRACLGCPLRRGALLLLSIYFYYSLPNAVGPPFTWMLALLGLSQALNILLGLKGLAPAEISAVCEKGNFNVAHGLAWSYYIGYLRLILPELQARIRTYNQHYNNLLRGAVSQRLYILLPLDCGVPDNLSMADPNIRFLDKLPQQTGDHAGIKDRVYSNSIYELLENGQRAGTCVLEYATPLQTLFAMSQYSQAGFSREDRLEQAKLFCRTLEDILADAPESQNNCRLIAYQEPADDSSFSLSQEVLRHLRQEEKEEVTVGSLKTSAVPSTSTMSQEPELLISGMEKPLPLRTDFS
Assay: Cellular Functional Assay I: ISRE-SEAP reporter in HEK-293T-Dual Null cells transfected with hSTING-H232
Conditions: HEK-293T-Dual Null, hSTING-H232
Give measured EC50 for each item. Keep answers brief.

[Q] Reported EC50 for CCn1nc(C)cc1C(=O)Nc1nc2cc(C(N)=O)sc2n1C/C=C/CNC(=O)OC(C)(C)C [Compound H] : what is it?
[A] > 0.5 µM

[Q] Repeat for the following molecule: CCn1nc(C)cc1C(=O)Nc1nc2cc(C(N)=O)sc2n1C/C=C/Cn1c(NC(=O)c2cc(C)nn2CC)nc2cc(C(N)=O)cc(OCCOC(F)F)c21 [Compound N]
[A] < 0.001 µM

[Q] Repeat for the following molecule: CCn1nc(C)cc1C(=O)Nc1nc2cc(C(N)=O)ccc2n1C/C=C/Cn1c(NC(=O)c2cc(C)nn2CC)nc2cc(C(N)=O)sc21 [Compound M]
[A] 0.001 to 0.5 µM

[Q] Repeat for the following molecule: CCn1nc(C)cc1C(=O)Nc1nc2cc(C(N)=O)cnc2n1C/C=C/CNC(=O)OCc1ccccc1 [Compound F]
[A] > 0.5 µM

[Q] Repeat for the following molecule: CCn1nc(C)cc1C(=O)Nc1nc2cc(C(N)=O)cnc2n1C/C=C/Cn1c(NC(=O)c2cc(C)nn2CC)nc2cc(C(N)=O)cc(OCCCNC)c21 [Compound S]
[A] 0.001 to 0.5 µM

[Q] Repeat for the following molecule: CCn1nc(C)cc1C(=O)Nc1nc2cc(C(N)=O)cnc2n1C/C=C/Cn1c(NC(=O)c2cc(C)nn2CC)nc2cc(C(N)=O)cc(OCCCNCCOC(F)F)c21 [Compound U]
[A] 0.001 to 0.5 µM

[Q] Repeat for the following molecule: CCn1nc(C)cc1C(=O)Nc1nc2cc(C(N)=O)cnc2n1C/C=C/Cn1c(NC(=O)c2cc(C)nn2CC)nc2cc(C(N)=O)cc(OCCCO)c21 [Compound R]
[A] 0.001 to 0.5 µM
